System: PEER
Experiment: selective drug sensitivity score (sDSS, relative to normal bone marrow) (sDSS (score)); higher = more potent and effective on the cell line relative to normal bone marrow cells;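 note: ALL cell lines in 384-well plates, five doses spanning 10,000-fold, each plate scaled between vehicle and 100 µmol/L benzalkonium chloride controls, sDSS an adapted area-under-curve metric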
Settings: 72 h
Below, each entry is listed alongside its reported selective drug sensitivity score.
Returns: the value as a bare number; no unit string appended.

A selection of reference data follows.
Fill: selective drug sensitivity score (PEER) for this molecule NC1(C(=O)N[C@@H](CCO)c2ccc(Cl)cc2)CCN(c2ncnc3[nH]ccc23)CC1 [AZD-5363] (top concentration 10000 nM)
-0.88

Provide measured selective drug sensitivity score on PEER for CC(C)[C@H](C(=O)Nc1ccc(C(=O)NO)cc1)c1ccccc1 [AR-42] (top concentration 10000 nM) please.
9.18

Enter measured selective drug sensitivity score, system PEER, for the molecule shown: CCNc1nc(Nc2cc(F)c(C(=O)N3CCOCC3)cc2OC)ncc1C(F)(F)F [GNE-7915] (top concentration 1000 nM)
-0.06

Find the measured selective drug sensitivity score of CCN(CCO)CCCOc1ccc2c(Nc3cc(CC(=O)Nc4cccc(F)c4)[nH]n3)ncnc2c1 [AZD1152-HQPA] (top concentration 1000 nM) with PEER as test system.
21.8

Others:
Specify the recorded selective drug sensitivity score for CN1CCN(C2CCN(C(=O)Nc3cc(Oc4ccc(NC(=O)C5(C(=O)Nc6ccc(F)cc6)CC5)c(F)c4)ccn3)CC2)CC1 [Golvatinib] (top concentration 2500 nM) , system: PEER.
2.46

Please respond with reported selective drug sensitivity score (system PEER) for O=C(Nc1cnn2ccc(N3CCC[C@@H]3c3cc(F)ccc3F)nc12)N1CC[C@H](O)C1 [Larotrectinib] (top concentration 1000 nM) .
-0.62

---

Recorded measurements of selective drug sensitivity score, one per entry
Test system: COG-LL-319h
Assay: selective drug sensitivity score (sDSS, relative to normal bone marrow) (sDSS (score)); higher = more potent and effective on the cell line relative to normal bone marrow cells
Details: 72 h
Answer field: number only, no words.

Take a look at these entries with their results.
Read off the recorded selective drug sensitivity score for CO[C@H]1C[C@@H]2CC[C@@H](C)[C@@](O)(O2)C(=O)C(=O)N2CCCC[C@H]2C(=O)O[C@H]([C@H](C)C[C@@H]2CC[C@@H](O)[C@H](OC)C2)CC(=O)[C@H](C)/C=C(\C)[C@@H](O)[C@@H](OC)C(=O)[C@H](C)C[C@H](C)/C=C/C=C/C=C/1C [Sirolimus] (top concentration 100 nM)
5.94

Consider the compound CNC(=O)[C@@H](NC(=O)[C@H](CC(C)C)[C@H](O)C(=O)NO)C(C)(C)C [Marimastat] (top concentration 10000 nM) and give its recorded selective drug sensitivity score.
-1.28

Now turn to the next compound.
Fill in reported selective drug sensitivity score for this entry: Cn1ncc(Cl)c1-c1cc(C(=O)N[C@H](CN)Cc2ccc(F)c(F)c2)oc1Cl [Uprosertib] (top concentration 10000 nM)
5.3

---

selective drug sensitivity score: recorded values
Tested on: NALL-1
Assay: selective drug sensitivity score (sDSS, relative to normal bone marrow) (sDSS (score)); higher = more potent and effective on the cell line relative to normal bone marrow cells
Conditions: 72 h
// response body must contain only the number

For the molecule O=C(O)c1ccc(CN2CCC(CN[C@@H]3C[C@H]3c3ccccc3)CC2)cc1 (top concentration 100000 nM) , report selective drug sensitivity score.
-0.32

Others:
Read off the recorded selective drug sensitivity score for O=C(Nc1c[nH]nc1-c1nc2ccc(CN3CCOCC3)cc2[nH]1)NC1CC1 [AT9283] (top concentration 1000 nM)
9.02

Output selective drug sensitivity score of O=S(=O)(c1cccc2c(O)nccc12)N1CCCNCC1 [Hydroxyfasudil] (top concentration 19000 nM)
2.58

Quote selective drug sensitivity score reported for Cc1ccc(-c2cc(C(F)(F)F)nn2-c2ccc(S(N)(=O)=O)cc2)cc1 [Celecoxib] (top concentration 10000 nM) please.
-0.06

---

System: SEM cells
Experiment: selective drug sensitivity score (sDSS, relative to normal bone marrow) (sDSS (score)); higher = more potent and effective on the cell line relative to normal bone marrow cells
Details: 72 h
Known selective drug sensitivity score of a selection of compounds

Solved cases below.
# return selective drug sensitivity score for Cn1cc(-c2ccc(F)c(C(F)(F)F)c2)nc1C1CCN(c2ncnc3[nH]ncc23)CC1 (top concentration 10000 nM) , test system: SEM cells
-0.14

Enter selective drug sensitivity score (test system SEM cells) for CCCCNc1ncc(C(=O)NCc2ccc(-n3ccnc3)cc2)c(NC2CCC(O)CC2)n1 (stereo unspecified) [UNC2881] (top concentration 2500 nM)
6.3

Quote selective drug sensitivity score with test system SEM cells for CCn1c(-c2nonc2N)nc2c(C#CC(C)(C)O)ncc(OC[C@H]3CCCNC3)c21 (top concentration 10000 nM)
5.28

---
Specify the recorded selective drug sensitivity score for CCCCCCCCCCCCCCCCOP(=O)([O-])OCC[N+](C)(C)C [Miltefosine] (top concentration 100000 nM) , system: SEM cells.
4.36

GET selective drug sensitivity score | system: SEM cells | item: CNC(=O)c1cccc(-c2ccc3c(N4CCOC[C@@H]4C)nc(N4CCOC[C@@H]4C)nc3n2)c1 [Vistusertib] (top concentration 10000 nM)
4.82

Would you please give the reported selective drug sensitivity score of Nc1ncnc2c1nc(N)n2[C@@H]1O[C@H](CO)[C@@H](O)[C@H]1O [8-amino-adenosine] (top concentration 50000 nM) with SEM cells?
5.08

---

Test system: PF-382
Assay: selective drug sensitivity score (sDSS, relative to normal bone marrow) (sDSS (score)); higher = more potent and effective on the cell line relative to normal bone marrow cells
Settings: 72 h
Property measured: selective drug sensitivity score

Print PF-382 selective drug sensitivity score for CC(C)Nc1cc(-c2c[nH]c(C(=O)N[C@H](CO)c3cccc(Cl)c3)c2)c(Cl)cn1 [Ulixertinib] (top concentration 10000 nM) .
-0.28

Fill in selective drug sensitivity score for Cc1[nH]nc(C(F)(F)F)c1Cc1sc2c(c1C(=O)N1C[C@](C)(O)CO1)c(=O)n(C)c(=O)n2C(C)C [AZD3965] (top concentration 1000 nM) tested with PF-382.
1.7

# lookup: PF-382 selective drug sensitivity score, key = C[C@H]1C[C@@H](n2c(Nc3ccc(OC(F)(F)F)cc3)nc3cc(CCC(=O)O)ccc32)CC(C)(C)C1 (top concentration 10000 nM)
0.66

Could you now look at the following compound, please?
# return selective drug sensitivity score for N.N.[Cl][Pt][Cl] [Cisplatin] (top concentration 100000 nM) , test system: PF-382
10.2

---

Tested on: SUP-B15
Assay: selective drug sensitivity score (sDSS, relative to normal bone marrow) (sDSS (score)); higher = more potent and effective on the cell line relative to normal bone marrow cells
Conditions: 72 h
Property: selective drug sensitivity score; scope: individual molecules
Format: numeric value only, no unit, no commentary.

Quote selective drug sensitivity score reported for COCC[n+]1c2c(n(Cc3cnccn3)c1C)C(=O)c1ccccc1C2=O [Sepantronium_bromide] (top concentration 10000 nM) please.
22.3

State its selective drug sensitivity score: C[C@]1(O)C[C@@H](c2nc(-c3ccc4ccc(-c5ccccc5)nc4c3)c3c(N)nccn32)C1 [Linsitinib] (top concentration 10000 nM)
-3.18

Provide selective drug sensitivity score value for the following molecule: CON(C)C(=O)N1N=C(c2cc(F)ccc2F)S[C@@]1(CCCN)c1ccccc1 [Filanesib] (top concentration 1000 nM)
21.6

Output selective drug sensitivity score of C[C@H]1CN(C2COC2)CCN1c1ccc(Nc2cc(-c3ccnc(N4CCn5c(cc6c5CC(C)(C)C6)C4=O)c3CO)cn(C)c2=O)nc1 [GDC-0853] (top concentration 1000 nM)
0

Quick one: give measured selective drug sensitivity score for Cc1nc(Nc2n[nH]c3c2CN(C(=O)N[C@H](CN(C)C)c2ccccc2)C3(C)C)c2sccc2n1 (top concentration 10000 nM)
12.8

Consider the molecule COC(=O)N[C@@H](C)CNc1nccc(-c2cn(C(C)C)nc2-c2cc(Cl)cc(NS(C)(=O)=O)c2F)n1 [Encorafenib] (top concentration 1000 nM) and give its recorded selective drug sensitivity score.
0.9

---
State its selective drug sensitivity score: Clc1ccc(C(c2ccccc2Cl)C(Cl)Cl)cc1 (stereo not drawn) [Mitotane] (top concentration 10000 nM)
-0.08

Output measured selective drug sensitivity score for this item: CCC1(c2ccc(N)cc2)CCC(=O)NC1=O (stereo not drawn) [Aminoglutethimide] (top concentration 10000 nM)
0

---

Test system: KARPAS-45
Test: selective drug sensitivity score (sDSS, relative to normal bone marrow) (sDSS (score)); higher = more potent and effective on the cell line relative to normal bone marrow cells
Settings: 72 h
As shown below, each of these compounds has a reported selective drug sensitivity score value.
The answer should be a number; do not append a unit.

The cases that follow already have their selective drug sensitivity score on record.
Give recorded selective drug sensitivity score. CN(C)C1CCN(C(=O)c2ccc(NC(=O)Nc3ccc(-c4nc(N5CCOCC5)nc(N5CCOCC5)n4)cc3)cc2)CC1 [Gedatolisib] (top concentration 1000 nM)
3.76

Report selective drug sensitivity score for C[C@H](Nc1ncnc2nc[nH]c12)c1cc2cccc(Cl)c2c(=O)n1-c1ccccc1 [Duvelisib] (top concentration 500 nM)
-0.44

Indicate its recorded selective drug sensitivity score; the compound in question is C[C@H]1CN(C2COC2)CCN1c1ccc(Nc2cc(-c3ccnc(N4CCn5c(cc6c5CC(C)(C)C6)C4=O)c3CO)cn(C)c2=O)nc1 [GDC-0853] (top concentration 1000 nM)
0

Write down selective drug sensitivity score measured for item CO[C@H](C(=O)[C@@H](O)[C@@H](C)O)[C@@H]1Cc2cc3cc(O[C@H]4C[C@@H](O[C@H]5C[C@@H](O)[C@H](O)[C@@H](C)O5)[C@@H](O)[C@@H](C)O4)c(C)c(O)c3c(O)c2C(=O)[C@H]1O[C@H]1C[C@@H](O[C@H]2C[C@@H](O[C@H]3C[C@](C)(O)[C@H](O)[C@@H](C)O3)[C@H](O)[C@@H](C)O2)[C@H](O)[C@@H](C)O1 [Plicamycin] (top concentration 10000 nM)
-11.1

Continuing:
Quick one: give measured selective drug sensitivity score for CC(=O)c1cc2c(o1)C(=O)c1ccccc1C2=O [Napabucasin] (top concentration 20000 nM)
1.22

Query selective drug sensitivity score for NC(=O)N1CCC(CC(=O)N2CCC([C@H]3c4ncc(Br)cc4CCc4cc(Cl)cc(Br)c43)CC2)CC1 [Lonafarnib] (top concentration 100000 nM)
24.1

Supply measured selective drug sensitivity score of COc1ccc(-c2ccc3c(N4CCOC[C@@H]4C)nc(N4CCOC[C@@H]4C)nc3n2)cc1CO [AZD8055] (top concentration 10000 nM) in your reply.
4.78

Consider the compound C[C@]1(O)C[C@@H](c2nc(-c3ccc4ccc(-c5ccccc5)nc4c3)c3c(N)nccn32)C1 [Linsitinib] (top concentration 10000 nM) and give its recorded selective drug sensitivity score.
-3.18

State, in one line, measured selective drug sensitivity score of CC(C)Oc1ccc(-c2nn([C@@H](C)c3oc4ccc(F)cc4c(=O)c3-c3cccc(F)c3)c3ncnc(N)c23)cc1F [TGR-1202] (top concentration 2500 nM)
-2.36

Read off the recorded selective drug sensitivity score for O=C(O)CC1CC(c2ccccc2)=NO1 (stereo unspecified) [VGX-1027] (top concentration 10000 nM)
-0.04

Supply selective drug sensitivity score value. Item: CN1CCN(C2CCN(C(=O)Nc3cc(Oc4ccc(NC(=O)C5(C(=O)Nc6ccc(F)cc6)CC5)c(F)c4)ccn3)CC2)CC1 [Golvatinib] (top concentration 2500 nM)
0.76
